Values were extracted from PubChem BioAssay (NCI).

- Test system: HS 578T breast
- protocolSummary: NCI-60 one-dose screen, 48 h
- measurementConditions: 10 µM unless noted
The panel holds about 83,000 compounds, 20% with a hit somewhere; the sample as a whole holds those more often. Active and inactive are the calls of the source. Rule for the calls: active = growth percent below 10; inactive = the rest.
Outcomes: 1 = active, -1 = inactive

{"molecule": "CC1=C(C/C=C(\\C)CCC[C@H](C)CCC[C@H](C)CCCC(C)C)C(=O)c2ccccc2C1=O", "classification": -1}
{"molecule": "Cc1nc2cc(Nc3nc(NCCO)nc(Nc4ccc(F)cc4)n3)ccc2n1Cc1ccccc1", "classification": -1}
{"molecule": "CCC(C)Oc1cc(/C=N/NC(=O)c2cnn3c2NC(c2ccccc2)C3)ccc1OC (stereo unspecified)", "classification": 1}
{"molecule": "O=C(Nc1ccc(Cl)c(Cl)c1)NC(CO)(CO)CO", "classification": -1}
{"molecule": "Cc1ccc(N=c2nc3sc4c(C)ccc(C)c4n3c(N)c2C#N)cc1", "classification": -1}
{"molecule": "CSc1nnc(-c2sc3nnc(-c4ccccc4)c(-c4ccccc4)c3c2O)o1", "classification": -1}
{"molecule": "O=c1[nH]c(=S)c2c(n1CCCO)CCC2", "classification": -1}
{"molecule": "CCCCNNC(=O)c1ccc(Br)cc1", "classification": -1}
{"molecule": "COc1cc2nc(N3CCC[C@H](NC4=CC(=O)c5ccccc5C4=O)C3)nc(N)c2cc1OC", "classification": 1}
{"molecule": "CCCCCCCCCCCCCCCC[N+]1(C)CCOCC1", "classification": -1}
{"molecule": "COc1cccc(C2C3=C(COC3=O)N(CCO)c3cc4c(cc32)OCO4)c1 (stereo unspecified)", "classification": 1}
{"molecule": "O=C1/C(=C/c2ccc([N+](=O)[O-])cc2)Oc2ccc(O)cc21", "classification": -1}
{"molecule": "CCN1C(=O)C2(Nc3ccccc3S2)c2cc(C)ccc21 (stereo unspecified)", "classification": -1}
{"molecule": "COc1cc(-c2nc(SC(C)C)nc(Nc3ccccc3C)c2C#N)cc(OC)c1OC", "classification": -1}
{"molecule": "COc1cc(-c2ccc3cc(OC)c(OC)c(OC)c3c2)cc(OC)c1OC", "classification": -1}
{"molecule": "O=C1C(OCCOc2ccccc2)=C(OCCOc2ccccc2)C(=O)c2ccccc21", "classification": -1}
{"molecule": "COc1cc(/C=C/c2cc(/C=C/c3ccc(O)c(OC)c3)n(-c3ccccc3)n2)ccc1O", "classification": 1}
{"molecule": "CCN(C(=O)c1ccc2c3c(cccc13)C=C2)c1ccccc1", "classification": -1}
{"molecule": "Cl.Fc1c[c-]c(-c2ccccn2)c(F)c1.[Pt].c1ccc([PH+](CC[PH+](c2ccccc2)c2ccccc2)c2ccccc2)cc1", "classification": 1}
{"molecule": "O=C(NC1CC1)c1cc2n(n1)CC(c1ccccc1)N2 (stereo unspecified)", "classification": -1}
{"molecule": "O=S(=O)(Nc1ncccn1)c1ccc(Nc2ccc3nnc(-c4ccncc4)n3n2)cc1", "classification": -1}
{"molecule": "C[C@@H](Oc1cc(-c2cnn(C3CC4(CNC4)C3)c2)cnc1N)c1c(Cl)ccc(F)c1Cl", "classification": -1}
{"molecule": "O=c1[nH]c(-c2ccccn2)nc2sc3c(c12)CCCCCC3", "classification": -1}
{"molecule": "Cc1ccc(S(=O)(=O)N(c2ccc(Cl)cc2)c2ccc(Br)cc2C(=O)O)cc1", "classification": -1}
{"molecule": "O=c1[nH]c(=O)n(Cc2ccc(F)cc2)cc1F", "classification": -1}
{"molecule": "c1ccc2c(c1)oc1cc3c(cc12)nnc1cccn13", "classification": -1}
{"molecule": "O=c1nc(NO)[nH]c(=O)n1Cc1ccc(F)cc1", "classification": -1}
{"molecule": "Cc1ccc(S(=O)(=O)N2C/C(=C\\c3cc(F)cc(F)c3)C(=O)/C(=C/c3cc(F)cc(F)c3)C2)cc1", "classification": -1}
{"molecule": "COc1cc2oc(-c3ccc(O)cc3)cc(=O)c2c(O)c1I", "classification": -1}
{"molecule": "O=C1c2ccccc2-c2cn(Cc3ccccc3)c3cccc(c23)C1c1cccnc1 (stereo unspecified)", "classification": -1}
{"molecule": "COC(=O)CCC(=O)c1ccccc1", "classification": -1}
{"molecule": "CCCCOC(=O)C1OC(Oc2ccc3c(C)cc(=O)oc3c2)[C@@H](OC(C)=O)C(OC(C)=O)C1OC(C)=O (stereo partly specified)", "classification": -1}
{"molecule": "O=C1OCC2=C1C(c1ccc3c(c1)OCO3)CC(=O)N2c1cccc(Cl)c1 (stereo unspecified)", "classification": -1}
{"molecule": "Oc1ccc(Cl)cc1CNc1nc2ccccc2[nH]1", "classification": -1}
{"molecule": "Cc1cc(Cl)c2c(Cl)ccc(Cl)c2n1", "classification": -1}
{"molecule": "Cc1nc2cc(Nc3nc(N4CCCCC4)nc(N4CCOCC4)n3)ccc2n1Cc1ccccc1", "classification": -1}
